The values you see were collected from patent US4130559A.

// endpoint MIC / system Staph. albus
Give the figure together with its unit, number first.

Solved cases (6 shown):
COMPOUND	MEASURE_NAME	OBSERVED_VALUE
CC(C)Oc1ccc(C2(C(=O)NC3C(=O)N4C3SC(C)(C)C4C(=O)O)CCCC2)cc1 (stereo not shown)	MIC	0.19 µg/mL
CCCOc1cccc(C2(C(=O)NC3C(=O)N4C3SC(C)(C)C4C(=O)O)CCCC2)c1 (stereo not shown)	MIC	0.19 µg/mL
CCOc1cccc(C2(C(=O)NC3C(=O)N4C3SC(C)(C)C4C(=O)O)CCCC2)c1 (stereo not shown)	MIC	0.19 µg/mL
COc1cccc(C2(C(=O)NC3C(=O)N4C3SC(C)(C)C4C(=O)O)CCCC2)c1 (stereo not shown)	MIC	0.39 µg/mL
CCCCOc1cccc(C2(C(=O)NC3C(=O)N4C3SC(C)(C)C4C(=O)O)CCCC2)c1 (stereo not shown)	MIC	0.19 µg/mL
COc1ccc(C2(C(=O)NC3C(=O)N4C3SC(C)(C)C4C(=O)O)CCCC2)cc1 (stereo not shown)	MIC	0.19 µg/mL

Turning now to a further record.
Readout MIC for CCCOc1ccccc1C1(C(=O)NC2C(=O)N3C2SC(C)(C)C3C(=O)O)CCCC1 (stereo not shown) , test system Staph. albus, was 0.39 µg/mL

====

- MEASUREMENT_NOTES: Acid resistance (half-life period)
- Format: physicochemical
- CONDITION_SET: acid ph 1.3; Temperature 37° C, pH 1.3; Table 1, cyclopentyl series; read-out: τ1/2 half-life period (acid resistance)
The recorded half-life of each item maps onto one of these classes: low band = under 0.7 h, middle band = from 0.7 h up to 3 h, high band = 3 h and over

Previously resolved entries follow.
COMPOUND	LABEL_CLASS
COc1cccc(C2(C(=O)NC3C(=O)N4C3SC(C)(C)C4C(=O)O)CCCC2)c1 (stereo not drawn)	high band
COc1ccccc1C1(C(=O)NC2C(=O)N3C2SC(C)(C)C3C(=O)O)CCCC1 (stereo not drawn)	high band
CCOc1ccc(C2(C(=O)NC3C(=O)N4C3SC(C)(C)C4C(=O)O)CCCC2)cc1 (stereo not drawn)	middle band

Ask: Hey, which category is CCCOc1ccc(C2(C(=O)NC3C(=O)N4C3SC(C)(C)C4C(=O)O)CCCC2)cc1 (stereo not drawn) in, do you know?
Reply: middle band

Ask: Each compound maps to one class by half-life. Which class for CCCOc1ccccc1C1(C(=O)NC2C(=O)N3C2SC(C)(C)C3C(=O)O)CCCC1 (stereo not drawn) ?
Reply: low band

Ask: Which class holds CCCCOc1ccccc1C1(C(=O)NC2C(=O)N3C2SC(C)(C)C3C(=O)O)CCCC1 (stereo not drawn) ?
Reply: low band

Ask: Bin this entry: CCCCOc1cccc(C2(C(=O)NC3C(=O)N4C3SC(C)(C)C4C(=O)O)CCCC2)c1 (stereo not drawn)
Reply: high band

====

The following compounds are shown together with reported half-life values.
- MEASUREMENT_NOTES: Acid resistance (half-life period)
- Format: physicochemical
- CONDITION_SET: acid ph 1.3; Temperature 37° C, pH 1.3; Table 3, cyclobutyl series; read-out: τ1/2 half-life period (acid resistance)
- Protocol: All compounds of this group were prepared in the form of sodium salts. Bactericidal activity, degree of hydrolysis with staphylococc penicillinase and acid resistance of the penicillins were determined.
Numeric only. Scale: min

A selection of reference data follows.
INPUT_SMILES	UNITS_TEXT	half-life
CCCOc1ccccc1C1(C(=O)N[C@@H]2C(=O)N3[C@@H]2SC(C)(C)[C@@H]3C(=O)O)CCC1	min	23
COc1ccccc1C1(C(=O)N[C@@H]2C(=O)N3[C@@H]2SC(C)(C)[C@@H]3C(=O)O)CCC1	min	7.7

With those in mind, consider the next compound.
Quick note, half-life for CC(C)Oc1cccc(C2(C(=O)N[C@@H]3C(=O)N4[C@@H]3SC(C)(C)[C@@H]4C(=O)O)CCC2)c1 landed at 17.2

====

Known MTD of a selection of molecules
- MEASUREMENT_NOTES: in vivo
- CONDITION_SET: mouse, iv
Give the number; mg/kg is assumed, so skip it.

Below are worked cases with known answers.
MOLECULE	OBSERVED_VALUE
CCCOc1cccc(C2(C(=O)N[C@@H]3C(=O)N4[C@@H]3SC(C)(C)[C@@H]4C(=O)O)CC2)c1	1500
CCOc1cccc(C2(C(=O)NC3C(=O)N4C3SC(C)(C)C4C(=O)O)CC2)c1 (centres unmarked)	1500
COc1ccccc1C1(C(=O)N[C@@H]2C(=O)N3[C@@H]2SC(C)(C)[C@@H]3C(=O)O)CCC1	500
COc1ccc(C2(C(=O)N[C@@H]3C(=O)N4[C@@H]3SC(C)(C)[C@@H]4C(=O)O)CC2)cc1	2000
CC1(C)S[C@@H]2[C@H](NC(=O)C3(c4ccccc4)CCC3)C(=O)N2[C@H]1C(=O)O	1000

Reported MTD for CCCOc1ccc(C2(C(=O)N[C@@H]3C(=O)N4[C@@H]3SC(C)(C)[C@@H]4C(=O)O)CC2)cc1 was 1000

MTD recorded for this molecule, COc1ccc(C2(C(=O)NC3C(=O)N4C3SC(C)(C)C4C(=O)O)CCCC2)cc1 (centres unmarked) , is 2000

The measured MTD associated with COc1ccc(C2(C(=O)N[C@@H]3C(=O)N4[C@@H]3SC(C)(C)[C@@H]4C(=O)O)CCC2)cc1 reads 1500

Record summary for CCCOc1cccc(C2(C(=O)N[C@@H]3C(=O)N4[C@@H]3SC(C)(C)[C@@H]4C(=O)O)CCC2)c1 : reported MTD = 250

Given item CCCOc1cccc(C2(C(=O)NC3C(=O)N4C3SC(C)(C)C4C(=O)O)CCCC2)c1 (centres unmarked) , the value recorded as its MTD is 1500

Entry under test: CCCCOc1ccc(C2(C(=O)N[C@@H]3C(=O)N4[C@@H]3SC(C)(C)[C@@H]4C(=O)O)CCC2)cc1 . Its MTD was 500

Sample CCCOc1ccccc1C1(C(=O)NC2C(=O)N3C2SC(C)(C)C3C(=O)O)CC1 (centres unmarked) ; MTD observed: 500

Reported MTD of CCOc1ccccc1C1(C(=O)N[C@@H]2C(=O)N3[C@@H]2SC(C)(C)[C@@H]3C(=O)O)CCC1 : 250

Input CCCCOc1ccc(C2(C(=O)NC3C(=O)N4C3SC(C)(C)C4C(=O)O)CCCC2)cc1 (centres unmarked) . Output MTD: 1500

====

- MEASUREMENT_NOTES: Acid resistance (half-life period)
- Assay type: physicochemical
- CONDITION_SET: acid ph 1.3, pH 1.3; under conditions of our experiments; read-out: half-life period
Reported half-life values follow for various compounds
Kindly provide the numeric value in min only, without the unit symbol.

COMPOUND	MEASURE_NAME	OBSERVED_VALUE
CC1(C)SC2C(NC(=O)C3(c4ccccc4)CCCC3)C(=O)N2C1C(=O)O (centres unmarked) [Compound I (Table 1), 1-Phenylcyclopentyl-1-Penicillin]	half-life	26

half-life reported for this compound CC1(C)S[C@@H]2[C@H](NC(=O)Cc3ccccc3)C(=O)N2[C@H]1C(=O)O [Benzyl Penicillin, benzylpenicillin, reference compound] : 2.1

====

- Test system: Staph. aureus 209p (adapted to benzylpenicillin)
- MEASUREMENT_NOTES: Minimal bacteriostatic concentration
- Type: cell-based
- CONDITION_SET: Staphylococcus aureus, read-out: Minimal Bacteriostatic Concentration
MEASURE_NAME: MIC

Guide cases for MIC, answers given:
COMPOUND	MIC
CC1(C)SC2C(NC(=O)C3(c4ccccc4)CCCC3)C(=O)N2C1C(=O)O (stereo not shown)	> 500 µg/mL
CCCCOc1ccccc1C1(C(=O)NC2C(=O)N3C2SC(C)(C)C3C(=O)O)CCCC1 (stereo not shown)	> 500 µg/mL
COc1cccc(C2(C(=O)NC3C(=O)N4C3SC(C)(C)C4C(=O)O)CCCC2)c1 (stereo not shown)	> 500 µg/mL
COc1ccccc1C1(C(=O)NC2C(=O)N3C2SC(C)(C)C3C(=O)O)CCCC1 (stereo not shown)	> 500 µg/mL
CC(C)Oc1cccc(C2(C(=O)NC3C(=O)N4C3SC(C)(C)C4C(=O)O)CCCC2)c1 (stereo not shown)	> 500 µg/mL

Documented MIC of CCCOc1ccccc1C1(C(=O)NC2C(=O)N3C2SC(C)(C)C3C(=O)O)CCCC1 (stereo not shown) : > 500 µg/mL

Entry CC(C)Oc1ccccc1C1(C(=O)NC2C(=O)N3C2SC(C)(C)C3C(=O)O)CCCC1 (stereo not shown) ; MIC = > 500 µg/mL

====

- System: Prot.vulgaris
- MEASUREMENT_NOTES: Minimal bacteriostatic concentration
- Type: cell-based
- CONDITION_SET: Proteus vulgaris, sodium salts
MEASURE_NAME: MIC (µg/mL)
Enter your answer as a number in µg/mL; do not include the unit.

COMPOUND	MEASURE_NAME	OBSERVED_VALUE
CCCOc1ccccc1C1(C(=O)NC2C(=O)N3C2SC(C)(C)C3C(=O)O)CCCC1 (stereo not drawn)	MIC	500

// MIC lookup, compound = CCCCOc1cccc(C2(C(=O)NC3C(=O)N4C3SC(C)(C)C4C(=O)O)CCCC2)c1 (stereo not drawn) , result: 125

Sample CC(C)Oc1ccc(C2(C(=O)NC3C(=O)N4C3SC(C)(C)C4C(=O)O)CCCC2)cc1 (stereo not drawn) ; MIC observed: 62.5
